Tested on: MCF7
assay-text: Cytotoxicity against human MCF7 cells assessed as cell growth inhibition after 72 hrs by MTT assay
Assay type: functional, cell-based
study-conditions: MCF7, 72 h
pIC50: −log10 of the molar value.
Classification field: True = pIC50 at or over 5; False = pIC50 under 5.

Lookup: Check if pIC50 >= 5 (inclusive). Item: c1nnc2nnc(N3CCCC3)nn12
Found: True

Lookup: Check the entry CCCCCC(=O)N1CCN(c2nnc3nncn3n2)CC1 : does pIC50 equal or exceed 5?
Found: True

Lookup: Can O=C(Cc1ccccc1)N1CCN(c2nnc3nncn3n2)CC1 be said to have pIC50 at or above 5?
Found: True

Lookup: Quick check: does CC(C)(C)C(=O)N1CCN(c2nnc3nncn3n2)CC1 have pIC50 greater than or equal to 5?
Found: True

Lookup: # check: pIC50 of CN1CCN(c2nnc3nncn3n2)CC1 is greater than or equal to 5
Found: False

Lookup: Could you tell me if the measured pIC50 of O=C(c1ccc([N+](=O)[O-])cc1)N1CCN(c2nnc3nncn3n2)CC1 reaches 5 or more?
Found: True

Lookup: Confirm if pIC50 reported for the compound CCC(=O)N1CCN(c2nnc3nncn3n2)CC1 is 5 or above.
Found: False

Lookup: // inclusive: pIC50 at least 5? input: CC(C)COC(=O)N1CCN(c2nnc3nncn3n2)CC1
Found: True

Lookup: Answer whether pIC50 of CCCCC(=O)N1CCN(c2nnc3nncn3n2)CC1 is greater than or equal to 5.
Found: True

Lookup: Is the recorded value of pIC50 equal to or greater than 5 for this compound? CCCC(=O)N1CCN(c2nnc3nncn3n2)CC1
Found: True

Lookup: Reported pIC50 at or above 5? O=C(C1CCCCC1)N1CCN(c2nnc3nncn3n2)CC1
Found: True

Lookup: Does the compound OCC(CO)(CO)Nc1nnc2nncn2n1 have recorded pIC50 that is 5 or more?
Found: False

Lookup: Assess whether reported pIC50 for c1ccc(CCNc2nnc3nncn3n2)cc1 sits at 5 or higher.
Found: True

Lookup: Does the compound c1nnc2nnc(N3CCOCC3)nn12 have recorded pIC50 that is 5 or more?
Found: True

Lookup: Quick check: does Cc1cc(C)n(-c2nnc3nncn3n2)n1 have pIC50 greater than or equal to 5?
Found: False

Lookup: Does c1nnc2nnc(NC3CCCCC3)nn12 have a reported pIC50 of at least 5?
Found: True

Lookup: Exam item: decide whether the reported pIC50 for c1ccc(CN2CCN(c3nnc4nncn4n3)CC2)cc1 is at least 5.
Found: False

Lookup: In plain terms: is recorded pIC50 at least 5 for c1nnc2nnc(N3CCCCC3)nn12 ?
Found: False

Lookup: Textbook exercise: given the entry CC(C)C(=O)N1CCN(c2nnc3nncn3n2)CC1 , state whether its pIC50 is greater than or equal to 5.
Found: True

Lookup: Given Nc1nnc2nncn2n1 , state whether its pIC50 is at least 5.
Found: False

Lookup: Please tell me: is the compound CC(Nc1nnc2nncn2n1)C(=O)O (stereo not given) at or over 5 in terms of pIC50?
Found: False

Lookup: Item Cc1ccc(C(=O)N2CCN(c3nnc4nncn4n3)CC2)cc1 with pIC50 of 5 or above?
Found: False

Lookup: Dear colleague, could you confirm whether c1nnc2nnc(NC3CCCC3)nn12 has pIC50 at or above 5?
Found: False

Lookup: Given CCCNc1nnc2nncn2n1 , state whether its pIC50 is at least 5.
Found: False

Origin of values: ChEMBL document CHEMBL3808385
